# credit: ChEMBL document CHEMBL4680066

- System Name: Glucocorticoid receptor (Homo sapiens) (UniProt P04150)
- Sequence (P04150 whole entry): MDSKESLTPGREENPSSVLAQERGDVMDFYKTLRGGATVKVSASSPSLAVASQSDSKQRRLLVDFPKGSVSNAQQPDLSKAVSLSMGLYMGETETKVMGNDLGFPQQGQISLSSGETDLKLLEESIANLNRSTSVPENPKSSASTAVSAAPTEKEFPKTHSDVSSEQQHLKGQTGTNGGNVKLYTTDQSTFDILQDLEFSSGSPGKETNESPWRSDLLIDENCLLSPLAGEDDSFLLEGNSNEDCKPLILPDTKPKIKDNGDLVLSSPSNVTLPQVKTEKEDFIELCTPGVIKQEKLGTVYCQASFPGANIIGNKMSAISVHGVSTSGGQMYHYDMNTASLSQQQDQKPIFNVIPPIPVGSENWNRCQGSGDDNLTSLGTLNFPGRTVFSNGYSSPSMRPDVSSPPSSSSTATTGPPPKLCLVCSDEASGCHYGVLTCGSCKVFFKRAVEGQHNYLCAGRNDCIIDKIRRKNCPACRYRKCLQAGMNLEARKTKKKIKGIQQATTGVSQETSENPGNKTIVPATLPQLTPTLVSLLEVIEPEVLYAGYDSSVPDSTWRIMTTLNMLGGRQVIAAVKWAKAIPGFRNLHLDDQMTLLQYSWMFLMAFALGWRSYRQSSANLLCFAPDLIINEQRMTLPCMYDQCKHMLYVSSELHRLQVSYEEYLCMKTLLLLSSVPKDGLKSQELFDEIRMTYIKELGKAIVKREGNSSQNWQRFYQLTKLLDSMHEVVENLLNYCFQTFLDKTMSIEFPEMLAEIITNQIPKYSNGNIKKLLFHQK
- Test Settings: HEK293T, filed as modulator, time 22.0 min
Quick reference for T1/2 among some compounds

Below are worked cases with known answers.
| Test Smiles | T1/2 |
| --- | --- |
| COc1cccc(-n2ncc3c2C=C2CC[C@@H]4[C@H]([C@@H](O)C[C@@]5(C)[C@H]4CC[C@]5(O)C(=O)CO)[C@@]2(C)C3)c1 | 4.17 min |
| C[C@]12Cc3cn(-c4ccc(F)cc4)nc3C=C1CC[C@@H]1[C@@H]2[C@@H](O)C[C@@]2(C)[C@H]1CC[C@]2(O)C(=O)CO | 4.33 min |
| C[C@]12Cc3cn(-c4ccccc4)nc3C=C1CC[C@@H]1[C@@H]2[C@@H](O)C[C@@]2(C)[C@H]1CC[C@]2(O)C(=O)CO | 2.63 min |
| CCCCCCn1ncc2c1C=C1CC[C@@H]3[C@H]([C@@H](O)C[C@@]4(C)[C@H]3CC[C@]4(O)C(=O)CO)[C@@]1(C)C2 | 2.1 min |

**Query** Write down the reported T1/2 of `C[C@]12Cc3cnn(-c4ccc(F)cc4)c3C=C1CC[C@@H]1[C@@H]2[C@@H](O)C[C@@]2(C)[C@H]1CC[C@]2(O)C(=O)CO` , test system: Glucocorticoid receptor (Homo sapiens) (UniProt P04150).
**Result** 2.2 min

**Query** Write down the reported T1/2 of `C[C@]12Cc3cnn(-c4ccccc4)c3C=C1CC[C@@H]1[C@@H]2[C@@H](O)C[C@@]2(C)[C@H]1CC[C@]2(O)C(=O)CO` , test system: Glucocorticoid receptor (Homo sapiens) (UniProt P04150).
**Result** 2.67 min
